Could you please report measured Kd for the items listed next?
target desc: GABARAP F62K (recombinant, BLI) (human, UniProt O95166 1-117, F62K)
assay overview: BLI
Ends that are not written are not given here.
# output: bare number, implied unit nM

-- ask Quick one: Kd of NISQKSDEEDFVKVEDLPLKLTIY (also: biotin, position not given here) [PCM1 LIR peptide (biotinylated, BLI)] ?
-- reply 3800

-- ask Need Kd of SKDSSCDTDDFVMVPAQFPGDLVA (also: biotin, position not given here) [ULK1 LIR peptide (biotinylated, BLI)] , thanks.
-- reply 150
